- Test system: OVCAR-8 ovarian
- assay-info: NCI tumour cell line growth inhibition, 48 h
parameter-measured: TGI

compound	assay-result
C[Si](C)(C)c1ccc(CC2(Cc3ccc([Si](C)(C)C)cc3)CCNC2)cc1	3.35 µM
CC1=C2c3ccccc3N(C(=O)/C=C/C(=O)O)[C@H]2[C@H]2C(=O)OC(=O)[C@H]2C1	> 10 µM
O=C(/C=C(\[O-])c1ccccc1)CCCCCCC(=O)/C=C(\[O-])c1ccccc1.O=C(/C=C(\[O-])c1ccccc1)CCCCCCC(=O)/C=C(\[O-])c1ccccc1.O=C(/C=C(\[O-])c1ccccc1)CCCCCCC(=O)/C=C(\[O-])c1ccccc1.[La+3].[La+3]	> 50 µM
O=C1OC[C@@H]2Cc3c([nH]c4ccccc34)[C@@H](c3ccc(O)cc3)N12	> 71.7 µM
NNC(=O)c1cnn(-c2ccnc3c(C(F)(F)F)cccc23)c1N	> 100 µM
CN1CCN(Cc2ccc(NC(=O)c3cncc(C#Cc4cnc(N)c5ccccc45)c3)cc2C(F)(F)F)CC1	1.46 µM
OCc1ccccc1C1CSCSC1	> 100 µM
COC(=O)C(CC(=O)c1cc2c(cc1I)OCO2)Cc1cc(OC)c(OC)c(OC)c1I (stereo not drawn)	> 100 µM
